test: Cytotoxicity activity against human HepG2 cells assessed by CellTiter-Glo luminescent cell viability assay.; assay type: toxicity, cell-based; set-up: assay stage confirmatory assay, source tissue liver; conditions: HepG2 cells, read-out: IC50 relative
Activity calls are given as the source filed them. The rule behind the calls is not given here.
Classes used: class 1 (active), class 0 (inactive)

| COMPOUND | ASSIGNED_CLASS |
| --- | --- |
| Fc1ccc(C(OCCN2CCN(CCCc3ccccc3)CC2)c2ccc(F)cc2)cc1 | class 1 |
| C[C@@H]1COCCN1c1cc(=O)n2c(n1)N(Cc1cncc(Cl)c1)[C@H](C(F)(F)F)CC2 | class 0 |
| CCc1ccc(NC(=O)Nc2ccc3c(c2)N(S(=O)(=O)CC)CC3)cc1 | class 1 |
| Cc1cccc(Cl)c1OCCN(C)CC1(C)COC1 | class 0 |
| CN(C)c1ccnc(CNC(=O)Nc2ncc(C(F)(F)F)s2)c1 | class 1 |
| CC(=O)CCS(=O)(=O)c1ccc(Cc2ccc(S(=O)(=O)CCC(C)=O)cc2)cc1 | class 1 |
| O=C1NCCc2[nH]c(-c3ccncc3)cc21 | class 1 |
| Nc1c(C(=O)NCc2ccco2)c2nc3ccccc3nc2n1CCN1CCCCC1 | class 1 |
| COc1ccc(/C=C\c2cc(OC)c(OC)c(OC)c2)cc1O | class 0 |
| CN(C)c1ccc2nc3ccc(=[N+](C)C)cc-3sc2c1 [METHYLENE BLUE ANHYDROUS] | class 1 |
| Cn1cc(-c2cnn3c(N)c(Br)c([C@@H]4CCCNC4)nc23)cn1 | class 1 |
| O=C1Nc2ccccc2C2(CCN(CCc3ccc(C(F)(F)F)cc3)CC2)O1 | class 1 |
| Cc1nc(NC(=O)c2cc(Br)cn2C)sc1C | class 1 |
| CCS(=O)(=O)N1CCc2ccc(NC(=O)Nc3cccc(C#N)c3)cc21 | class 1 |
| CCN(CC)S(=O)(=O)c1cccc(C(=O)Nc2cccc(F)c2)c1 | class 1 |
| COc1cccc(Nc2nc(N3CCN(C)CC3)nc3c2cnn3C)c1 | class 0 |
| CCN(CC)S(=O)(=O)c1ccc(C(=O)Cn2ncc(Cl)c(Cl)c2=O)cc1 | class 1 |
| COc1ccc(CNc2nccn(-c3ccc4c(c3)OCO4)c2=O)cc1OC | class 0 |
| CN(C)CCOc1ccc2ccccc2c1Br | class 1 |
| NCCCNc1nc(-c2ccccc2)nc2ccccc12 | class 1 |
| Cc1ccc(F)c(C(=O)N2CCC(Oc3ccncc3C)CC2)c1 | class 1 |
| N#Cc1c(C2CCNCC2)cc(-c2c(O)cccc2OCC2CC2)nc1N | class 1 |
| COc1ccc(Nc2nccc(-c3ccncc3)n2)cc1 | class 1 |
| COc1ccc2cc1Oc1ccc(cc1)C[C@H]1c3cc(c(OC)cc3CCN1C)Oc1c(OC)c(OC)cc3c1[C@H](C2)N(C)CC3 | class 1 |
| O=C(Nc1cccc(Nc2ncc(Br)c(NCCc3c[nH]cn3)n2)c1)N1CCCC1 | class 1 |
| Cc1cccnc1N1CCN(c2cc([C@H]3C[C@@H](N)C3)nc(N)n2)CC1 | class 1 |
| CCN(CC)C(=O)N1CC(Oc2ccc(-c3noc(-c4cccnc4)n3)cc2)C1 | class 1 |
| O=C(Nc1ncccc1O)c1ccc(OCc2cn3ccccc3n2)cc1 | class 1 |
| CC1=NN(C(=O)c2ccc(N(C)C)cc2)C(O)(C(F)(F)F)C1 (stereo unspecified) | class 0 |
| CCNc1cc2[o+]c3cc(NCC)c(C)cc3c(-c3ccccc3C(=O)OCC)c2cc1C | class 1 |
| CCOc1cc(C(Nc2cc(C)ccn2)c2ccc3cccnc3c2O)ccc1OC (stereo unspecified) | class 1 |
| Cc1nc(NC(=O)N2CCC[C@H]2C(N)=O)sc1-c1ccnc(C(C)(C)C(F)(F)F)c1 | class 1 |
| O=C(CN1C(=O)COc2ccc(S(=O)(=O)N3CCCCCC3)cc21)NCc1ccccc1 | class 0 |
| COc1cc(-c2nnc(SC3=CS(=O)(=O)c4ccccc43)o2)cc(OC)c1OC | class 1 |
| CN(C)CCNC(=O)c1ccc2c(c1)n(Cc1cccc(F)c1)c(=O)c1ccnn12 | class 1 |
| O=C(NCc1ccccc1)c1c(O)c2cccnc2n(Cc2ccccc2)c1=O | class 1 |
| CCn1c(=O)c(-c2ccc(Cl)cc2Cl)cc2cnc(Nc3ccc(N4CCNCC4)c(F)c3)nc21 | class 1 |
| N[C@@H](Cc1ccccc1)C(=O)N1C/C(=C\c2ccc(Cl)c(Cl)c2)C(=O)/C(=C/c2ccc(Cl)c(Cl)c2)C1 | class 1 |
| O=C(Nc1cnn(-c2ccccn2)c1)c1ccc(O)c(Cl)c1 | class 0 |
| Cc1cc(/C=C/C#N)cc(C)c1Nc1ccnc(Nc2ccc(C#N)cc2)n1 | class 0 |
| O=C(N[C@H]1CN2CCC1CC2)c1cc2cccc(Cl)c2s1 | class 1 |

---

experiment: Cytotoxicity activity against human HepG2 cells assessed by CellTiter-Glo luminescent cell viability assay.; type: toxicity, cell-based; parameters: assay stage confirmatory assay, source tissue liver; conditions: HepG2 cells, read-out: IC50 relative
Calls of active or inactive are those of the source. No rule for the calls is given here.
Classes used: active, inactive

| INPUT_SMILES | ASSIGNED_CLASS |
| --- | --- |
| CCn1c(-c2cccc(S(=O)(=O)N3CCOCC3)c2)cs/c1=N/c1ccccc1 | active |
| CC(C)CNC(=O)N1CC(Oc2ccc(-c3noc(C4CCOCC4)n3)cc2)C1 | active |
| COc1cc(OC)cc(C(=O)N2CCN(Cn3ncc(Cl)c(Cl)c3=O)CC2)c1 | inactive |
| CCc1ccc2nc(N3CCC(C(=O)NCCN(CC)CC)CC3)sc2c1 | active |
| C[C@H]1CN(CC(=O)Nc2nc3ccc(F)cc3s2)CCN1c1nccn2cnnc12 | active |

---

assay: Cytotoxicity activity against human HepG2 cells assessed by CellTiter-Glo luminescent cell viability assay.; format: toxicity, cell-based; design: assay stage confirmatory assay, source tissue liver; settings: HepG2 cells, read-out: IC50 relative
Calls of active or inactive are those of the source. How the calls were made is not given here.
Classes used: True = active, False = inactive

| INPUT_SMILES | ASSIGNED_CLASS |
| --- | --- |
| CN1CCN([C@H]2CC[C@H](n3cc(-c4ccc(Oc5ccccc5)cc4)c4c(N)ncnc43)CC2)CC1 | True |
| Cc1sc2c(c1C)C(c1ccc(Cl)cc1)=N[C@@H](CC(=O)Nc1ccc(O)cc1)c1nnc(C)n1-2 | True |
| CCCCOc1c(C(=O)c2c(F)cc(C)cc2F)c[nH]c2nncc1-2 | False |
| Cn1c(=O)c2c(ncn2CCn2ncc(Cl)c(Cl)c2=O)n(C)c1=O | True |
| O=S1(=O)CCCN1c1ccc(CNc2ncnc3ccccc23)cc1F | True |
| O=C(Nc1cccc(C(F)(F)F)c1)Nc1cc(S(=O)(=O)NC2CC2)ccc1-c1ccsc1 | True |
| CC(C)n1ncnc1NC(=O)c1cccc(C(F)(F)F)c1O | True |
| COc1cccc(-c2ccc(=O)n(CC(=O)Nc3ccccn3)n2)c1 | True |
| Cc1[nH]c(C(=O)Nc2ccc(C#N)cc2)c(C)c1S(=O)(=O)N1CCCC1 | False |
| N#Cc1c[nH]c(C(=O)Nc2cc(C(F)(F)F)ccn2)c1 | True |
| COc1cc(O)cc(O)c1C(=O)/C=C/c1ccccc1 | False |
| COc1ccccc1C(=O)Nc1nc2ccccc2[nH]1 | True |
| O=C(CN1C(=O)COc2ccc(S(=O)(=O)N3CCCC3)cc21)N1CCN(Cc2ccccc2)CC1 | False |
| Cc1ccc2c(NS(=O)(=O)c3ccccc3Cl)cccc2c1Oc1ncccc1-c1ccnc(N[C@H]2CCCNC2)n1 | True |
| COc1ccc(C(=O)Nc2ccncc2)cc1S(=O)(=O)N(C)Cc1ccccc1 | True |
| CC(C)n1ncc2cc(NC(=O)c3ccc(=O)n(Cc4ccccc4)n3)cnc21 | True |
| CN(C)c1nc(Nc2cccc(O)c2)nc2ccccc12 | True |
| Cc1ccc(N2N=C(C(=O)N3CCCC3)S(=O)(=O)c3cccnc32)cc1 | True |
| COc1ccc(C(=O)N[C@@H]2CN(Cc3ccccc3)C[C@H]2CN(C)C)c(OC)c1 | True |
| COc1cc(C(=O)NC2CCN(C)CC2)c(F)cc1Nc1ncc2c(n1)N(C1CCCC1)CC(F)(F)C(=O)N2C | True |

---

assay: Cytotoxicity activity against human HepG2 cells assessed by CellTiter-Glo luminescent cell viability assay.; assay type: toxicity, cell-based; parameters: assay stage confirmatory assay, source tissue liver; conditions: HepG2 cells, read-out: IC50 relative
Where a name gives a salt, the structure may show the parent alone. Calls of active or inactive are those of the source. The rule behind the calls is not given here.
Classes used: active, inactive

| MOLECULE | ASSIGNED_CLASS |
| --- | --- |
| Cc1sc2c(c1C)C(c1ccc(Cl)cc1)=N[C@@H](CC(=O)OC(C)(C)C)c1nnc(C)n1-2 | active |
| CN(C)C(=O)CO[C@@H]1COCC[C@H]1NC(=O)c1cn(C)c2ccccc12 | active |
| O=S1(=O)C[C@H](NC2CCCC2)[C@@H](S(=O)(=O)c2ccc(Cl)cc2)C1 | active |
| COc1cc(/N=c2\ssnc2Cl)cc(OC)c1OC | active |
| COc1ccccc1OCCNc1ncnc2cc(F)ccc12 | active |
| O=C(Nc1cccc(Cl)c1)Nc1ncc(CCNc2ncnc3ccsc23)s1 [SNS-314 MESYLATE] | active |
| CC[C@@H](N)CNc1ccnc(-c2cc(-c3cnn(C)c3)ccc2O)n1 | active |
| CCN1CCN(C(=O)Cc2ccc(Nc3ncc(F)c(Nc4ccc(C(=O)Nc5ccccc5Cl)cc4)n3)cc2)CC1 | active |
| CC(C)(C)OC(=O)Nc1ccc(-c2cc(C(=O)NCCCCCCC(=O)NO)no2)cc1 | active |
| C=CC(=O)Nc1ccc(CN(C(=O)Nc2c(Cl)c(OC)cc(OC)c2Cl)c2cc(Nc3ccc(N4CCN(C)CC4)cc3)ncn2)cc1 | active |
| Cc1cc(C)n(-c2ccc(C(=O)Nc3ncccc3O)cc2)n1 | active |
| C[C@H](O)CN1CCC(CNCc2ccc(Cl)cc2)CC1 | active |
| Cc1occc1C(=O)NC1CCN(CCC(=O)c2ccccc2)CC1 | active |
| O=C(NO)c1cnc(NC2(c3ccccc3)CC2)nc1 | active |
| CS(=O)(=O)Nc1ccc(C(=O)N2CCN(CCOc3ccc(Cl)cc3)CC2)cc1 | active |
| O=C1CCc2c(Oc3ccc4c(c3)[C@@H]3[C@H](O4)[C@H]3c3nc4ccc(C(F)(F)F)cc4[nH]3)ccnc2N1 [LIFIRAFENIB] | active |
| CCCS(=O)(=O)N1CCc2ccc(NC(=O)Nc3cccc(OC)c3)cc21 | active |
| CCS(=O)(=O)N1CCc2ccc(NC(=O)Nc3ccc(Cl)cc3)cc21 | inactive |
| COc1ccccc1N1CCN(S(=O)(=O)c2ccc3c4c(cccc24)C(=O)N3)CC1 | inactive |
| CCn1c(=O)n(CC)c2cc(N3CCCC3)c(NC(=O)c3cccc(OC)c3)cc21 | inactive |
| COc1ccc(C(=O)Nc2nc3cc4c(cc3s2)OCCO4)cn1 | inactive |
| Cc1[nH]c2c(C)ccc(F)c2c1CCN | active |
| CNS(=O)(=O)c1cc(-c2cc(C(=O)Nc3cccc(OC)c3)n[nH]2)ccc1OC | active |
| NCCn1cc(C(=O)N2CCN(Cc3ccc(Br)s3)CC2)nn1 | active |
| COc1ccc2cc(C(=O)Nc3ccc4oc(=O)[nH]c4c3)[nH]c2c1 | inactive |
| COc1ccc(-c2ccc(CNCCCN3CCOCC3)o2)cc1Cl | inactive |
| O=C(O)c1ccc2c(c1)nc(Nc1cccc(Cl)c1)c1ccncc12 | active |
| O=c1[nH]c2ccccc2n1C1CCN(c2nccc(-c3cccnc3)n2)CC1 | active |
| Fc1cccc(N2CCCC2)c1CNc1nccc(N[C@H]2CCCOC2)n1 | active |
| Cn1cc(S(=O)(=O)N2CCC[C@@H]2COc2ccc(F)cc2)cc1C(N)=O | active |
| O=C(CCN1CCC(c2ccccc2)C1)c1ccc2c(c1)OCCO2 (stereo unspecified) [PROROXAN HYDROCHLORIDE] | active |
| Cc1ccccc1C[C@H](C)NCCN1CCC(N(C)C)CC1 | inactive |
| CC[C@H](CO)Nc1nc(NCc2ccccc2)c2ncn(C(C)C)c2n1 [SELICICLIB] | active |
| c1ccc2c(-c3cnn4cc(-c5ccc(N6CCNCC6)cc5)cnc34)ccnc2c1 | active |
| Cc1nc[nH]c1CNCCCc1ccc(C(C)C)cc1 | inactive |
| Nc1ncccc1-c1nc2ccc(-c3ccccc3)nc2n1-c1ccc(C2(N)CCC2)cc1 [MIRANSERTIB] | active |
| COc1ccc(C(=O)N[C@@H]2CN(Cc3ccccc3)C[C@H]2CN(C)C)cc1F | active |
| CCc1onc(C)c1C1CCCN1Cc1ccc(OC)c(O)c1 (stereo unspecified) | active |
| Cc1cc2c(=O)nc(-c3cc(OCC(F)F)ccn3)[nH]c2s1 | active |
| CCOc1ncccc1C(=O)NCc1nccc2ccccc12 | active |
| COc1cc2c(cc1OC)CN(CCc1ccc(NC(=O)c3cc(OC)c(OC)cc3NC(=O)c3cnc4ccccc4c3)cc1)CC2 | inactive |
